- System: Escherichia coli
- Run Description: Concentration required for 90 percent inhibition of [14C]- pen-G binding to Escherichia coli DCO PBP5/6 40 KDa
Each item that follows carries a reported Concentration.
Observable: Concentration

- Given Smiles: "CC1(C)S[C@@H]2[C@H](NC(=O)[C@@H](CCCCN)c3ccccc3)C(=O)N2[C@H]1C(=O)O"
  Target Or System: "Escherichia coli"
  Observable: "Concentration"
  Reported Result: "> 100 µg/mL"
- Given Smiles: "CC(=O)NCCCC[C@@H](C(=O)N[C@@H]1C(=O)N2[C@@H]1SC(C)(C)[C@@H]2C(=O)O)c1ccccc1"
  Target Or System: "Escherichia coli"
  Observable: "Concentration"
  Reported Result: "> 100 µg/mL"
- Given Smiles: "CC1(C)S[C@@H]2[C@H](NC(=O)Cc3ccccc3)C(=O)N2[C@H]1C(=O)O"
  Target Or System: "Escherichia coli"
  Observable: "Concentration"
  Reported Result: "> 100 µg/mL"
- Given Smiles: "CC1(C)S[C@@H]2[C@H](NC(=O)[C@H](CCCCN)c3ccccc3)C(=O)N2[C@H]1C(=O)O"
  Target Or System: "Escherichia coli"
  Observable: "Concentration"
  Reported Result: "> 100 µg/mL"
- Given Smiles: "CC(=O)NCCCC[C@H](C(=O)N[C@@H]1C(=O)N2[C@@H]1SC(C)(C)[C@@H]2C(=O)O)c1ccccc1"
  Target Or System: "Escherichia coli"
  Observable: "Concentration"
  Reported Result: "> 100 µg/mL"
- Given Smiles: "CC1(C)S[C@@H]2[C@H](NC(=O)[C@H](N)c3ccccc3)C(=O)N2[C@H]1C(=O)O"
  Target Or System: "Escherichia coli"
  Observable: "Concentration"
  Reported Result: "100 µg/mL"

###

- System: Staphylococcus aureus
- Run Description: Concentration required for 90 percent inhibition of [14C]- pen-G binding to Staphylococcus aureus ATCC 25293 PBP2 80 KDa
Concentration for assorted compounds
Observable: Concentration (µg/mL)

- Given Smiles: "CC1(C)S[C@@H]2[C@H](NC(=O)[C@H](N)c3ccccc3)C(=O)N2[C@H]1C(=O)O"
  Output Unit: "µg/mL"
  Relation Operator: "="
  Reported Result: 2
- Given Smiles: "CC1(C)S[C@@H]2[C@H](NC(=O)Cc3ccccc3)C(=O)N2[C@H]1C(=O)O"
  Output Unit: "µg/mL"
  Relation Operator: "="
  Reported Result: 0.1
- Given Smiles: "CC(=O)NCCCC[C@@H](C(=O)N[C@@H]1C(=O)N2[C@@H]1SC(C)(C)[C@@H]2C(=O)O)c1ccccc1"
  Output Unit: "µg/mL"
  Relation Operator: ">"
  Reported Result: 100
- Given Smiles: "CC(=O)NCCCC[C@H](C(=O)N[C@@H]1C(=O)N2[C@@H]1SC(C)(C)[C@@H]2C(=O)O)c1ccccc1"
  Output Unit: "µg/mL"
  Relation Operator: "="
  Reported Result: 100
- Given Smiles: "CC1(C)S[C@@H]2[C@H](NC(=O)[C@H](CCCCN)c3ccccc3)C(=O)N2[C@H]1C(=O)O"
  Output Unit: "µg/mL"
  Relation Operator: "="
  Reported Result: 100
- Given Smiles: "CC1(C)S[C@@H]2[C@H](NC(=O)[C@@H](CCCCN)c3ccccc3)C(=O)N2[C@H]1C(=O)O"
  Output Unit: "µg/mL"
  Relation Operator: "="
  Reported Result: 30

Just for reference, ChEMBL document CHEMBL1151601 is where these values come from.
